Sourced from ChEMBL document CHEMBL4689842

Catalogue of Population Pyknosed Nuclei (%) readings, one per entry.
System: Fibroblast
protocol details: Multiplex assay against human fibroblast
Format: toxicity, cell-based
applied conditions: 48 h, 1 µM, compound concentration 1 uM, replicate 1

compound	tested on	Population Pyknosed Nuclei (%)
O=C(Nc1ccc(-c2ccnc(Nc3ccc(N4CCOCC4)cc3)n2)cc1)[C@@H]1CCCN1	Fibroblast	9
O=C1N/C(=N/c2ccccc2F)S/C1=C\c1ccc(C(=O)O)cc1	Fibroblast	17
COc1cc(N2CCN(C)CC2)ccc1Nc1ncc2c(n1)N(C)c1ccccc1C(=O)N2C	Fibroblast	7
Cl.O=c1c2cccn2c2ccccc2n1CCCN1CCC(c2ccc(Cl)cc2)CC1	Fibroblast	19
Cc1cn(-c2cc(NC(=O)c3ccc(C)c(Nc4nccc(-c5cccnc5)n4)c3)cc(C(F)(F)F)c2)cn1	Fibroblast	26
CCOc1cc2ncc(C#N)c(Nc3ccc(OCc4ccccn4)c(Cl)c3)c2cc1NC(=O)/C=C/CN(C)C	Fibroblast	18
CCOC(=O)c1c(C)[nH]c2ccc3c(c12)CN1CCc2cc(OC)ccc2C1O3 (stereo unspecified)	Fibroblast	12
CCn1c(=O)c(-c2ccc(-c3cncs3)cc2Cl)cc2cnc(Nc3ccc(N4CCN(C)CC4)cc3)nc21	Fibroblast	24
Cl.Oc1ccc2c3c1O[C@H]1c4[nH]c5c(c4C[C@@]4(O)[C@@H](C2)N(CC2CC2)CC[C@]314)C[C@@]1(O)[C@H]2Cc3ccc(O)c4c3[C@@]1(CCN2CC1CC1)[C@H]5O4	Fibroblast	21
C=C1/C(=C\C=C2/CCC[C@]3(C)[C@@H]([C@H](C)/C=C/[C@H](C)C(C)C)CC[C@@H]23)C[C@@H](O)C[C@@H]1O	Fibroblast	18
O=C(Cc1ccc(-c2ccc(OCCN3CCOCC3)cc2)cn1)NCc1ccccc1	Fibroblast	12
